Just for reference, patent US20250171459A1 is where these values come from.

Could you please report measured pIC50 for the items listed next?
tgt: APOL1 (Homo sapiens, UniProt O14791)
Sequence (O14791 1-398 S342G/I384M): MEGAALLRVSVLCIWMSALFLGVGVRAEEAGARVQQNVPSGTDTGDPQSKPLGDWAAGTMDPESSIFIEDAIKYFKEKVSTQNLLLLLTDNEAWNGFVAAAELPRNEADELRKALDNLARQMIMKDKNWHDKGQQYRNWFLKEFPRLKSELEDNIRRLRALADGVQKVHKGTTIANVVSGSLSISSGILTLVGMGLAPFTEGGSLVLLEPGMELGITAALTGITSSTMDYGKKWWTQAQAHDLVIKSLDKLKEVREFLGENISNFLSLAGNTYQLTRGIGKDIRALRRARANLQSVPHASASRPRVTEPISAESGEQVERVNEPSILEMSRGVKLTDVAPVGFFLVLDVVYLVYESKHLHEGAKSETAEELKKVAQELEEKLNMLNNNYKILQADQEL
test_protocol: MultiTox-Fluor Multiplex Cytotoxicity Assay in tet-inducible APOL1 T-REx-HEK293 cells (cell rescue, ratio of dead to live cells)
cond: tet-inducible transgenic APOL1 T-REx-HEK293 cell lines, 50 ng/mL tet, 24 hours; read-out: IP50 (i.e., IC50 for cell proliferation)
pIC50: −log10 of the molar value.

q: Can you look up the measured pIC50 of COCc1c(Cl)sc2c1CCO[C@@]21CCN(Cc2cnn(CCS(C)(=O)=O)c2)[C@@H](C)C1 for me?
a: > 7.00

q: Can you look up the measured pIC50 of CC(O)CCN1CC[C@]2(C[C@@H]1C)OCCc1cc(Cl)sc12 (stereo partly drawn) for me?
a: 6.00 to 6.30

q: Can you look up the measured pIC50 of CC(c1nnc[nH]1)n1cc(CN2CC[C@]3(C[C@@H]2C)OCCc2c3sc(C(F)(F)F)c2CO)cn1 (stereo partly drawn) for me?
a: 6.30 to 7.00

q: Can you look up the measured pIC50 of CCc1cc2c(s1)CCOC21CCN(Cc2cnc(C(F)(F)F)[nH]2)CC1 for me?
a: 6.00 to 6.30

q: Can you look up the measured pIC50 of C[C@H]1C[C@@]2(CCN1Cc1cnn(CS(=O)(=O)N(C)C)c1)OCCc1c2sc(C(F)(F)F)c1CO for me?
a: > 7.00

q: Can you look up the measured pIC50 of C[C@H]1C[C@@]2(CCN1C1COCC1O)OCCc1cc(CC(F)F)sc12 (stereo partly drawn) [Compound 609] for me?
a: > 7.00

====

tgt: APOL1 (Homo sapiens)
test_protocol: MultiTox-Fluor Multiplex Cytotoxicity Assay in tet-inducible APOL1 T-REx-HEK293 cells (cell rescue, ratio of dead to live cells)
cond: tet-inducible transgenic APOL1 T-REx-HEK293 cell lines, 50 ng/mL tet, 24 hours; read-out: IP50 (i.e., IC50 for cell proliferation)
pIC50: −log10 of the molar value.
Could you please report measured pIC50 for the items listed next?

q: Can you look up the measured pIC50 of CCn1cc(CN2CC[C@]3(C[C@@H]2C)OCCc2cc(Cl)sc23)cn1 for me?
a: > 7.00

q: Can you look up the measured pIC50 of Cc1c(Cl)sc2c1C(O)CO[C@@]21CCN(Cc2cnn(CCS(C)(=O)=O)c2)[C@@H](C)C1 (stereo partly shown) [Compound 858] for me?
a: > 7.00

q: Can you look up the measured pIC50 of CCc1cc2c(s1)CCO[C@@]21CCN(Cc2cn(Cc3nnc(C)o3)nn2)[C@@H](C)C1 for me?
a: 6.30 to 7.00

q: Can you look up the measured pIC50 of CCc1cc2c(s1)CCO[C@@]21CCN(Cc2cnn(CCS(=O)(=O)NC)c2)[C@@H](C)C1 for me?
a: > 7.00

q: Can you look up the measured pIC50 of CCc1cc2c(s1)CCO[C@@]21CCN(Cc2cn(CC3(C)CCOCC3)nn2)[C@@H](C)C1 for me?
a: 6.30 to 7.00

q: Can you look up the measured pIC50 of CNC(=O)Cn1cc(CN2CC[C@]3(C[C@@H]2C)OCCc2c3sc(C(F)(F)F)c2CO)cn1 for me?
a: > 7.00

q: Can you look up the measured pIC50 of C[C@H]1C[C@@]2(CCN1CC1CCN(S(C)(=O)=O)CC1)OCCc1cc(Cl)sc12 for me?
a: 6.30 to 7.00

q: Can you look up the measured pIC50 of C[C@H]1C[C@@]2(CCN1Cc1cn(CC(C)(CO)CO)nn1)OCCc1cc(Cl)sc12 for me?
a: 6.30 to 7.00

q: Can you look up the measured pIC50 of CCc1cc2c(s1)CCO[C@@]21CCN(Cc2cn(Cc3cnn(C)c3)nn2)[C@@H](C)C1 for me?
a: > 7.00

q: Can you look up the measured pIC50 of CCc1cc2c(s1)CCOC21CCN(Cc2cn(CC(O)c3ccccn3)nn2)C(C)C1 (stereo not shown) for me?
a: 6.30 to 7.00

q: Can you look up the measured pIC50 of Cc1cncc(N2CCC(CN3CC[C@]4(C[C@@H]3C)OCCc3cc(Cl)sc34)CC2)n1 for me?
a: 6.00 to 6.30

q: Can you look up the measured pIC50 of CCc1cc2c(s1)CCOC21CCN(Cc2ccc(C(=O)NCC3CCC(O)C3)nc2)CC1 (stereo not shown) for me?
a: 6.30 to 7.00

q: Can you look up the measured pIC50 of C[C@H]1C[C@@]2(CCN1Cc1ccc3c(c1)n(C)c(=O)n3C)OCCc1c2sc(C(F)(F)F)c1CO for me?
a: > 7.00

q: Can you look up the measured pIC50 of C[C@H]1C[C@@]2(CCN1Cc1cn(CC(C)(C)CO)nn1)OC[C@](O)(C(F)F)c1cc(Cl)sc12 for me?
a: 6.00 to 6.30

q: Can you look up the measured pIC50 of CCc1cc2c(s1)CCO[C@@]21CCN(Cc2ccc(N[C@@H]3C=C[C@H](CO)C3)nc2)[C@@H](C)C1 for me?
a: > 7.00

q: Can you look up the measured pIC50 of C[C@H]1C[C@@]2(CCN1Cc1cnn(C[C@@H](O)C(=O)N(C)C)c1)OCCc1c2sc(C(F)(F)F)c1CO for me?
a: > 7.00

q: Can you look up the measured pIC50 of CC(O)CN1CC[C@]2(C[C@@H]1C)OCCc1cc(CC(F)F)sc12 (stereo partly shown) for me?
a: 6.30 to 7.00

q: Can you look up the measured pIC50 of Cc1c(Cl)sc2c1C(O)CO[C@@]21CCN(Cc2cnn(CCS(C)(=O)=O)c2)[C@@H](C)C1 (single isomer, unassigned) [Compound 859] for me?
a: > 7.00

q: Can you look up the measured pIC50 of C[C@H]1C[C@@]2(CCN1Cc1cnn(CC3(C)COC3)c1)OCCc1c2sc(C(F)(F)F)c1CO for me?
a: 6.30 to 7.00

q: Can you look up the measured pIC50 of CCc1cc2c(s1)CCO[C@@]21CCN(C[C@H]2C[C@@H](NC(=O)CS(=O)(=O)NC)C2)[C@@H](C)C1 for me?
a: > 7.00

q: Can you look up the measured pIC50 of Cc1cccc(CN2CC[C@]3(C[C@@H]2C)OCCc2cc(Cl)sc23)n1 for me?
a: 6.00 to 6.30

q: Can you look up the measured pIC50 of Cc1nccn1-c1ccc(CN2CC[C@]3(C[C@@H]2C)OCCc2cc(Cl)sc23)cc1 for me?
a: > 7.00

q: Can you look up the measured pIC50 of CNC(=O)c1cccc(CN2CC[C@]3(C[C@@H]2C)OCCc2c3sc(Cl)c2CO)c1 for me?
a: 6.30 to 7.00

q: Can you look up the measured pIC50 of COCCn1cc(CN2CC[C@]3(C[C@@H]2C)OCCc2cc(Cl)sc23)cn1 for me?
a: > 7.00

q: Can you look up the measured pIC50 of C[C@H]1C[C@@]2(CCN1Cc1cccc(=O)[nH]1)OCCc1cc(CC(F)F)sc12 for me?
a: 6.30 to 7.00

q: Can you look up the measured pIC50 of C[C@H]1C[C@@]2(CCN1Cc1cnn(C)c1)OCCc1cc(CC(F)F)sc12 for me?
a: > 7.00

q: Can you look up the measured pIC50 of C[C@H]1C[C@@]2(CCN1Cc1cnn(CCS(C)(=O)=O)c1)OCCc1cc(CC(F)F)sc12 for me?
a: > 7.00

q: Can you look up the measured pIC50 of CCc1cc2c(s1)CCO[C@@]21CCN(CC2CN(S(=O)(=O)c3c[nH]cn3)C2)[C@@H](C)C1 for me?
a: 6.00 to 6.30

q: Can you look up the measured pIC50 of C[C@H]1C[C@@]2(CCN1CC1CNC(=O)C1)OCCc1cc(CC(F)F)sc12 (stereo partly shown) for me?
a: > 7.00

q: Can you look up the measured pIC50 of CCc1cc2c(s1)CCO[C@@]21CCN(C[C@H]2C[C@@H](NC(C)=O)C2)[C@@H](C)C1 for me?
a: 6.30 to 7.00

q: Can you look up the measured pIC50 of Cc1cc2c(s1)CCO[C@@]21CCN(C2CCCC2O)[C@@H](C)C1 (stereo partly shown) [Compound 504] for me?
a: 6.30 to 7.00
